# Tested on: U2OS
# PROCEDURE_DETAILS: Multiplex assay against U2OS
# Format: toxicity, cell-based
# STUDY_CONDITIONS: human, 12 h, 1 µM, compound concentration 1 uM, replicate 1
Label 0.0 if Population Hoechst High Intensity Objects (%) falls below 8%; label 1.0 in every other case.

// known answers, use as guide
• Cl.N#Cc1ccc2[nH]cc(CCCCN3CCN(c4ccc5oc(C(N)=O)cc5c4)CC3)c2c1 [VILAZODONE HYDROCHLORIDE] = 1.0
• COc1ncc(-c2ccc3nccc(-c4ccnnc4)c3c2)cc1NS(=O)(=O)c1ccc(F)cc1F [OMIPALISIB] = 0.0

Query block: Dear colleague, could you confirm whether Cn1cc(-c2[nH]c3cc(NC(=O)[C@H](N)C4CCCCC4)cc4c3c2C=NNC4=O)cn1 has Population Hoechst High Intensity Objects (%) at or above 8%?
Result block: 0.0

Query block: Dear colleague, could you confirm whether OC1(c2ccc(Cl)cc2)CCN(Cc2c[nH]c3ccccc23)CC1 has Population Hoechst High Intensity Objects (%) at or above 8%?
Result block: 1.0

Query block: Dear colleague, could you confirm whether CN1CCC[C@@H]1CCO[C@](C)(c1ccccc1)c1ccc(Cl)cc1.O=C(O)/C=C/C(=O)O [CLEMASTINE FUMARATE] has Population Hoechst High Intensity Objects (%) at or above 8%?
Result block: 1.0

Query block: Dear colleague, could you confirm whether NC(=O)Nc1cc(-c2cccc(F)c2)sc1C(=O)N[C@H]1CCCNC1 [AZD-7762] has Population Hoechst High Intensity Objects (%) at or above 8%?
Result block: 0.0

Query block: Dear colleague, could you confirm whether COc1cc(-n2cnc3cc(-c4ccc(Cl)cc4)sc3c2=O)ccc1OCCN1CCCC1 has Population Hoechst High Intensity Objects (%) at or above 8%?
Result block: 1.0

Query block: Dear colleague, could you confirm whether O=C1NCN(c2ccccc2)C12CCN(CCCOc1ccc(F)cc1)CC2 [SPIRAMIDE] has Population Hoechst High Intensity Objects (%) at or above 8%?
Result block: 0.0

----------
# Test system: U2OS
# PROCEDURE_DETAILS: Multiplex assay against U2OS
# Format: toxicity, cell-based
# STUDY_CONDITIONS: human, 48 h, 1 µM, compound concentration 1 uM, replicate 1
Binary label based on Population Membrane Permeable-Phenotype (%) with cut-off 3%: below gives MET, not below gives NOT MET.

// known answers, use as guide
- CN1CCCC(n2nc(Cc3ccc(Cl)cc3)c3ccccc3c2=O)CC1.Cl (configuration not stated) [AZELASTINE HYDROCHLORIDE]: NOT MET
- Cc1csc2c(N[C@@H](C)CN3CCN(S(=O)(=O)c4ccc(Cl)c(Cl)c4)CC3)ncnc12: NOT MET
- CNc1nc(NCc2ccc(NS(C)(=O)=O)cc2Cl)cc(-c2ccccn2)n1: MET
- Cn1cc(-c2[nH]c3cc(NC(=O)[C@H](N)C4CCCCC4)cc4c3c2C=NNC4=O)cn1: MET

Continue with the molecule presented below.
Query block: Check if Population Membrane Permeable-Phenotype (%) falls below 3% for CN(C)CC#Cc1ccc(OCCCc2sc(N3CCc4cccc(C(=O)Nc5nc6ccccc6s5)c4C3)nc2C(=O)O)c(F)c1 [A-1155463] .
Result block: NOT MET

----------
# Tested on: U2OS
# PROCEDURE_DETAILS: Multiplex assay against U2OS
# Assay type: toxicity, cell-based
# STUDY_CONDITIONS: human, 48 h, 10 µM, compound concentration 10 uM, replicate 1
Let's look at some molecules and their measured Population Mitochondria Different-Phenotype (%).

Guide cases for Population Mitochondria Different-Phenotype (%), answers given:
• Cc1csc2c(N[C@@H](C)CN3CCN(S(=O)(=O)c4ccc(Cl)c(Cl)c4)CC3)ncnc12 = 96%
• CN(C)C(=O)/C(C#N)=C/c1ccc(-c2nc3cnc4[nH]ccc4c3n2C2CCCCC2)o1 = 18%
• C=CC(=O)Nc1cccc(C(=O)Nc2ccc(Nc3cc(-c4[nH]c(SC)nc4C)ccn3)cc2)c1 = 9%
• CCn1c(=O)c(-c2ccc(Cl)cc2Cl)cc2cnc(Nc3ccc(N4CCNCC4)c(F)c3)nc21 = 62%
• C[C@@]1(C(=O)Nc2ccc(F)nc2)CCCN1c1nc(Nc2cc(C3CC3)n[nH]2)c2cccn2n1 = 75%
• Cn1cc(-c2[nH]c3cc(NC(=O)[C@H](N)C4CCCCC4)cc4c3c2C=NNC4=O)cn1 = 20%
• CN1CCCC(n2nc(Cc3ccc(Cl)cc3)c3ccccc3c2=O)CC1.Cl (stereo not given) [AZELASTINE HYDROCHLORIDE] = 100%
• CCOCCn1cc(C(=O)Nc2ccc(-n3nc(-c4cccnc4)cc3C(F)(F)F)cn2)ccc1=O = 26%

Query block: // lookup Population Mitochondria Different-Phenotype (%) for COc1cc(-n2cnc3cc(-c4ccc(Cl)cc4)sc3c2=O)ccc1OCCN1CCCC1
Result block: 100%

Query block: // lookup Population Mitochondria Different-Phenotype (%) for O=C1NCN(c2ccccc2)C12CCN(CCCOc1ccc(F)cc1)CC2 [SPIRAMIDE]
Result block: 58%
